target: 5′- and 3′-UTRs of human utrophin; experiment: Screening assay: C2C12 stable reporter line, CMV-driven luciferase flanked by utrophin 5′ and 3′ UTRs; format: cell-based; settings: 4-parameter logistic fit of Z-scores, 24 h; no unit in table (0.013 = 13 nM); read-out: EC50 screen
Starred links: 1 amine or outer side, 2 acyl side, 3 side chain; linkers in the order of their positions; H or OH if unused. Positions of bridges follow the written chain, without caps; N, C: chain ends. Non-standard residues stand in square brackets, D forms with d. Residues, ends and D or L forms follow the SMILES beside them. Chains are numbered I, II in the order given. Hexamethylenediamine = C(CCCN[*:2])CCN[*:1]; Dip = N[C@H](C(=O)O)C(c1ccccc1)c1ccccc1; Chg = N[C@H](C(=O)O)C1CCCCC1; NMeA = CN[C@@H](C)C(=O)O
measurement-type: pEC50
Scale explanation: pEC50 corresponds to minus log10 of a concentration expressed in moles per litre.

Value lookup for pEC50; key = CN[C@@H](C)C(=O)N[C@H](C(=O)N1CCC[C@H]1C(=O)N[C@H](C(=O)NCCCCCCNC(=O)[C@@H](NC(=O)[C@@H]1CCCN1C(=O)[C@@H](NC(=O)[C@H](C)NC)C1CCCCC1)C(c1ccccc1)c1ccccc1)C(c1ccccc1)c1ccccc1)C1CCCCC1 [BV-6] (I: H-[NMeA][Chg]P[Dip] / II: H-[NMeA][Chg]P[Dip]; linker I:C-II:C via Hexamethylenediamine)
7.00

Now consider `CC(=O)O/N=C1/C(=C2/C(=O)Nc3cc(Br)ccc32)Nc2ccccc21` and answer again.
6.48

Please do the same for `CN(C)c1ccc(C(=O)NCCCCCCC(=O)NO)cc1` as well.
5.49

Attribution: patent US20230076977A1
